Each recorded value in this set is attributed to patent US20240043448A1.

# tested target: Biotinylated KRAS G12C protein (Homo sapiens (Human), UniProt P01116, C118S/C51S/C80L/G12C)
# Sequence (P01116 other isoform, or with tags, fused parts or gaps, stated change not applied): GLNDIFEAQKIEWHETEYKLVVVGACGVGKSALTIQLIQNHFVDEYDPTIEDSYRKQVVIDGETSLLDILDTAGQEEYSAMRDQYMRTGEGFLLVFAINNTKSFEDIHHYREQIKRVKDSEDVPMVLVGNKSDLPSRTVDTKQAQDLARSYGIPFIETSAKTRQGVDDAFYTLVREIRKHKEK
# protocol description: SOS-catalyzed nucleotide exchange assay (TR-FRET)
# Type: biochemical
# stated conditions: in vitro apparent potency; preincubation time of 60 minutes prior to addition of SOS
value kind: IC50 (nM)

A. C=CC(=O)N1C[C@H](C)N(c2nc(=O)n3c4nc(c(F)cc24)-c2c(cc(F)c(F)c2F)OCCCc2ccnc(C(C)C)c2-3)C[C@H]1C
B. C=CC(=O)N1CCN(c2nc(=O)n3c4nc(c(F)cc24)-c2c(F)cccc2OCCCCc2cnc(C(C)C)c-3c2)[C@H](C)C1 [Example 16b]
C. C=CC(=O)N1C[C@H](C)N(c2nc(=O)n3c4nc(c(F)cc24)-c2cc(C(F)(F)F)ccc2OCCOc2ccnc(C(C)C)c2-3)C[C@H]1C
D. C=CC(=O)N1CCN(c2nc(=O)n3c4nc(c(F)cc24)-c2ccnn2CCCCc2ccnc(C(C)C)c2-3)[C@@H](C)C1
E. C=CC(=O)N1CCN(c2nc(=O)n3c4nc(c(F)cc24)-c2cccc4cnn(c24)CCCOc2ccnc(C(C)C)c2-3)[C@H](C)C1
[ask] Order all 5 entries above by recorded IC50, highest first, lowest last. Please list each label once, in the requested order.
[reply] D, C, E, B, A
(D: 898 nM, C: 64 nM, E: 15 nM, B: 10 nM, A: 2.6 nM)

====

# tested target: Biotinylated KRAS G12C protein (Homo sapiens (Human), UniProt P01116, C118S/C51S/C80L/G12C)
# protocol description: SOS-catalyzed nucleotide exchange assay (TR-FRET)
# Assay type: biochemical
# stated conditions: in vitro apparent potency; preincubation time of 60 minutes prior to addition of SOS
value kind: IC50 (nM)

Here are 5 compounds together with their reported answers.
C=CC(=O)N1C[C@H](C)N(c2nc(=O)n3c4nc(c(F)cc24)-c2cccc(F)c2OCCOc2ccnc(C(C)C)c2-3)C[C@H]1C	43
C=CC(=O)N1C[C@H](C)N(c2nc(=O)n3c4nc(c(F)cc24)-c2c(Cl)cccc2OCCCc2ccnc(C(C)C)c2-3)C[C@H]1C	2.3
C=CC(=O)N1C[C@H](C)N(c2nc(=O)n3c4nc(c(F)cc24)-c2c(cccc2C(F)(F)F)OCCOc2ccnc(C(C)C)c2-3)C[C@H]1C	6.5
C=CC(=O)N1CCN(c2nc(=O)n3c4nc(c(F)cc24)-c2c(F)ccc(F)c2OCCCCc2ccnc(C(C)C)c2-3)[C@@H](C)C1	2.6
C=CC(=O)N1C[C@@H](C)N(c2nc(=O)n3c4nc(c(Cl)cc24)-c2c(F)ccc(F)c2OCCOc2ccnc(C(C)C)c2-3)C[C@@H]1C	1

I. C=CC(=O)N1CC(C)N(c2nc(=O)n3c4nc(c(Cl)cc24)-c2c(F)cccc2COCCc2ccnc(C(C)C)c2-3)CC1C (stereo not drawn)
II. C=CC(=O)N1C[C@H](C)N(c2nc(=O)n3c4nc(c(F)cc24)-c2cccc(C(F)(F)F)c2OCCOc2ccnc(C(C)C)c2-3)C[C@H]1C
III. C=CC(=O)N1C[C@H](C)N(c2nc(=O)n3c4nc(c(F)cc24)-c2c(ccc(F)c2F)OCC(F)(F)CCc2ncnc(C(C)C)c2-3)C[C@H]1C
IV. C=CC(=O)N1CC(C)N(c2nc(=O)n3c4nc(c(F)cc24)-c2c(F)ccc4cnn(c24)CCCCc2ccnc(C(C)C)c2-3)CC1C (stereo not drawn)
[ask] Task for the reader: rank each entry by its IC50, from the minimum upward. Please list each label once, in the requested order.
[reply] III, I, IV, II
